src = PubChem BioAssay (NCI)

# System: CCRF-CEM leukemia
# assay-details: NCI-60 one-dose screen, 48 h
# assay-setup: 10 µM unless noted
About 83,000 compounds went through this panel and 20% of them were active in at least one assay; those are over-represented in the sample as a whole. Active and inactive are the calls of the source. How the source made its calls: active means growth percent below 10; inactive means the rest.
A correct response names exactly one class from T = active, F = inactive

Previously resolved entries follow.
[[record]]
compound = "CCNCc1ccccc1"
answer_label = "F"

[[record]]
compound = "COc1cc2oc3cc(=O)cc4oc(-c5ccccc5)cc(c2c2c1CCC(c1ccccc1)O2)c43 (stereo not given)"
answer_label = "F"

[[record]]
compound = "CC(=O)Nc1cscc1NC(C)=O"
answer_label = "F"

[[record]]
compound = "COc1cc2c(cc1O)C(=O)CCCC2"
answer_label = "F"

[[record]]
compound = "COC(=O)C(Cc1cn(C(C)=O)c2ccccc12)P(=O)(OC)OC (stereo not given)"
answer_label = "F"


*Q* Kindly provide the recorded test outcome for the following compound: C#CCOC(=O)C(N)CS (stereo not given)
*A* F

*Q* Returns: the outcome recorded for O=C1Cc2ccccc2C(=O)N1 in this assay.
*A* F

*Q* # fetch the recorded call for CCN(CC)CCNC(=O)c1ccc(NCN2C(=O)NC(c3ccccc3)(c3ccccc3)C2=O)cc1 here
*A* F

*Q* Assay outcome for N=C(N)N1CCc2ccccc2C1 : what was it?
*A* F

*Q* For CCCCNC(=O)c1ccccc1C , what call appears in the results of this test?
*A* F

*Q* Tell me the recorded outcome of this test for O=C(O)COc1ccccc1F .
*A* F

*Q* Outcome? N=c1sc2ccccc2n1CC(=O)O
*A* F

*Q* I would be grateful if you could indicate the recorded call for CCOCCC(=O)O .
*A* F

*Q* What was the test verdict on COc1ccc(/C=N/Nc2nc3ccccc3s2)cc1 ?
*A* F

*Q* Which outcome was assigned to Clc1ccc2sc(-c3ccccc3)nc2c1 in this test?
*A* F

*Q* Hi, do you know how CCNC1=CC(=O)c2ncccc2C1=O came out in this test?
*A* F

*Q* Lab log entry: CC(C)(C)C1CCC(=NO)CC1 (stereo not given) — outcome as called in the assay?
*A* F

*Q* Recorded test outcome, item C/C(=C\c1ccccc1)C(O)C(=O)c1nc2ccc([N+](=O)[O-])cc2[nH]c1=O (stereo not given)
*A* F

*Q* Tell me the assay call for CN(C)C(=N)N=C(N)N please.
*A* F

*Q* What classification did Cc1c(O)nc(N)[nH]c1=O end up with in this test?
*A* F

*Q* # fetch the recorded call for CS(=O)(=O)c1nsc(N)n1 here
*A* F

*Q* Assay result, entry CN(C)C(=S)N(C)C — outcome?
*A* F

*Q* In this assay, the call recorded for O=C(N=C1C(=O)C2(CCCCC2)C2(N=C(c3ccccc3)OC2=O)C12CCCCC2)c1ccccc1 (stereo not given) was what?
*A* F

*Q* Status in this test for CCC(C)NC(=O)c1ccccc1C (stereo not given) ?
*A* F
